# subject of test: Voltage-dependent N-type calcium channel subunit alpha-1B (Homo sapiens) (UniProt Q00975)
# Sequence (Q00975 whole entry, looked up): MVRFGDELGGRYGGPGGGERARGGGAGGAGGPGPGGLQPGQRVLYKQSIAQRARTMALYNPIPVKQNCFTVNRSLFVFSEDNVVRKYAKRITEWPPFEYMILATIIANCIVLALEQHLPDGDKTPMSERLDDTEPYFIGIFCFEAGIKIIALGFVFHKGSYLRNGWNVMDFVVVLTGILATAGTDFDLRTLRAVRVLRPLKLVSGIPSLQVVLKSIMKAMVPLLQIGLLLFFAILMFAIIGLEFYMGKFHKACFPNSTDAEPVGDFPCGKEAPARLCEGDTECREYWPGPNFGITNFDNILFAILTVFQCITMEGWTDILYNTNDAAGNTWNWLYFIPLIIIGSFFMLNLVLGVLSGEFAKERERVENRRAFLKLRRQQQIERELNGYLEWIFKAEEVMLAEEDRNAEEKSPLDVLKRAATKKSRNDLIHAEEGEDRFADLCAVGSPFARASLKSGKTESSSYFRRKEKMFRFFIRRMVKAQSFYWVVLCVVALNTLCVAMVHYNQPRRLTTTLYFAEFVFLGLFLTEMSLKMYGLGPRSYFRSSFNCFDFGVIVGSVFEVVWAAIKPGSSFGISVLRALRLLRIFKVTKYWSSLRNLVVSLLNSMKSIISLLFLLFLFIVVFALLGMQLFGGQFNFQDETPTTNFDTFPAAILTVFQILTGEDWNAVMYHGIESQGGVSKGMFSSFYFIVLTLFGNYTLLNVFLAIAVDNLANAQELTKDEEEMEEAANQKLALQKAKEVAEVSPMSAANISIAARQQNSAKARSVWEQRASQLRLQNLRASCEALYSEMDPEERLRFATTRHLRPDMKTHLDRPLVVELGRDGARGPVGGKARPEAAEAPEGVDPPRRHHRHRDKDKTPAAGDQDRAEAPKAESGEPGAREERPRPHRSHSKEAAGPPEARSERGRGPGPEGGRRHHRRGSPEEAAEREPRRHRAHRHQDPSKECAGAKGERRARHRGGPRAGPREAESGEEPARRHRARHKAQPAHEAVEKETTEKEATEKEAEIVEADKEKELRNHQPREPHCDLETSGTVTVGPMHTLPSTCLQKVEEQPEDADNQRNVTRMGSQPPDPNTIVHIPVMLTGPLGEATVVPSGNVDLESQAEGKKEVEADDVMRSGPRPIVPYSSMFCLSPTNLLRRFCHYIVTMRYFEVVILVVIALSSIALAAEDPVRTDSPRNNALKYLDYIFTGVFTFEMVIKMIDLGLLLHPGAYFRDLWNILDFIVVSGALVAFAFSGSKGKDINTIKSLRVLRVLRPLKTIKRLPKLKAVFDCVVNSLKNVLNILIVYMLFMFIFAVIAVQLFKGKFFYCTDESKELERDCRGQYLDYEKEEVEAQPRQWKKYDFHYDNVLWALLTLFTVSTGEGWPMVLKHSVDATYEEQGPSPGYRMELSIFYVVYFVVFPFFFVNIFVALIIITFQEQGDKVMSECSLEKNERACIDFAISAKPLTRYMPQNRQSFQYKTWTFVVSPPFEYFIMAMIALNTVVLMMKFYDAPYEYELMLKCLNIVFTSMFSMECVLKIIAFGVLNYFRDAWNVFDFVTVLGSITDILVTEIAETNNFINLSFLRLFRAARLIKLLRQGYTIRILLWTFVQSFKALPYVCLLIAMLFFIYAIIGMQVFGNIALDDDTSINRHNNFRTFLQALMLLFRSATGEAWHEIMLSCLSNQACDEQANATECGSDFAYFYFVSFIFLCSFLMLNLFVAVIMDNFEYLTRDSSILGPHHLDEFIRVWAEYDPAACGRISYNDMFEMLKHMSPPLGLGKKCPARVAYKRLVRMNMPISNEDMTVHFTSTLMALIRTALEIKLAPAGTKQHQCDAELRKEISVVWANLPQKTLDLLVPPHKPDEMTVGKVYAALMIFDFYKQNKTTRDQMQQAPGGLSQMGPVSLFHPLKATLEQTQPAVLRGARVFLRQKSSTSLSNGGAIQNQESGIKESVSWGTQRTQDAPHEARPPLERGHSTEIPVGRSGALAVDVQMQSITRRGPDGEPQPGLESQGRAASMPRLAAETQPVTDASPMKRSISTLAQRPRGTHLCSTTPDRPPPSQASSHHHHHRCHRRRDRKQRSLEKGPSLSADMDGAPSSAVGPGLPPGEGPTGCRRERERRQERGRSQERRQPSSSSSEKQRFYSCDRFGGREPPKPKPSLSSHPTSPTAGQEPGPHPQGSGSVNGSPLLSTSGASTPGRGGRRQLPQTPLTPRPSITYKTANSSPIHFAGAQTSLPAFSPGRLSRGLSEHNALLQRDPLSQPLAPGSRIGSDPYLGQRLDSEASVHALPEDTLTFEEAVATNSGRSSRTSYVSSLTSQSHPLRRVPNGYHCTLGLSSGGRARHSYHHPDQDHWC
# test description: disruptors of CaV2.2 binding to Mint1 – biochemical, HTRF (AID 2073)
# condition info: HTRF protein-protein interaction, Mint1-CaV2.2; at 20 µM
Hit rate of the full screen: of about 290,000 compounds, about 570 (0.2%) were called active. Inconclusive results (about 1%) are left out. No stated cut-off is given here; in the data, active means inhibition mostly above about 51% (no sharp cut-off); inconclusive means no clear call, values can overlap the other calls; inactive means mostly below about 53%. Shown is part of a subset that was picked to be rich in actives.
Please answer using one outcome listed in active, inactive

compound: CCOc1cccc(NC(=O)c2cccc(F)c2)c1
subject of test: Voltage-dependent N-type calcium channel subunit alpha-1B (Homo sapiens) (UniProt Q00975)
assigned label: inactive

compound: COC(=O)c1sc2ccccc2c1NC(=O)c1ccc(S(=O)(=O)N2CCCCC2C)cc1 (configuration not stated)
subject of test: Voltage-dependent N-type calcium channel subunit alpha-1B (Homo sapiens) (UniProt Q00975)
assigned label: inactive

compound: COC(=O)c1ccc(NC(=O)CCn2cccc2)cc1
subject of test: Voltage-dependent N-type calcium channel subunit alpha-1B (Homo sapiens) (UniProt Q00975)
assigned label: inactive

compound: Cc1ccc2c(Cl)c(C(=O)NCC(c3ccco3)N3CCCC3)sc2c1 (configuration not stated)
subject of test: Voltage-dependent N-type calcium channel subunit alpha-1B (Homo sapiens) (UniProt Q00975)
assigned label: inactive

Which result was noted for this compound in the test: `Cc1ccc(NC(=O)CCNS(=O)(=O)c2ccc3[nH]c(=O)oc3c2)c(C)c1`
inactive

What is the recorded call for this compound in the test? `CCCn1cnc2cc(NC(=O)c3ccco3)ccc21`
inactive

Hi, do you know how `Cc1c(-c2ccnc3cc(C(=O)O)nn23)cnn1C` came out in this test?
inactive

Dear all, I need the recorded test outcome for `S=C(NCc1cccnc1)NCc1cccnc1` , thank you.
inactive
